# tested system: HLA-A*02:16
# procedure details: IEDB peptide-MHC binding, purified MHC/competitive/fluorescence; filed as Kd, often an IC50 or EC50 that approximates it; bounds were set here for any values at or beyond the usual limits of such assays
# condition notes: source organism: Mycobacterium tuberculosis variant bovis BCG str. Pasteur 1173P2
pKd: −log10 of the molar value.
parameter: pKd

Problem: For the record `YLAEGHACL` , what value of pKd is listed for HLA-A*02:16?
Solution: ≥ 9.00

====

# tested system: HLA-B*44:02
# procedure details: IEDB peptide-MHC binding, purified MHC/competitive/radioactivity; filed as Kd, often an IC50 or EC50 that approximates it; bounds were set here for any values at or beyond the usual limits of such assays
# condition notes: source organism: Mammarenavirus brazilense
pKd: −log10 of the molar value.
parameter: pKd

[[record]]
residue_sequence = "EDQGNPIVL"
tested_system = "HLA-B*44:02"
parameter = "pKd"
value = "≤ 4.44"


// next entry
Problem: Need pKd, item `PDFNELFQL`
Solution: ≤ 4.54
